Data provenance: ChEMBL document CHEMBL3588780

target: Synaptic vesicular amine transporter (Rattus norvegicus, UniProt Q01827); test: Inhibition of VMAT2-mediated [3H]DA uptake in rat brain synaptic vesicles by liquid scintillation spectrometry; assay type: tissue-based
Sequence (Q01827 whole entry): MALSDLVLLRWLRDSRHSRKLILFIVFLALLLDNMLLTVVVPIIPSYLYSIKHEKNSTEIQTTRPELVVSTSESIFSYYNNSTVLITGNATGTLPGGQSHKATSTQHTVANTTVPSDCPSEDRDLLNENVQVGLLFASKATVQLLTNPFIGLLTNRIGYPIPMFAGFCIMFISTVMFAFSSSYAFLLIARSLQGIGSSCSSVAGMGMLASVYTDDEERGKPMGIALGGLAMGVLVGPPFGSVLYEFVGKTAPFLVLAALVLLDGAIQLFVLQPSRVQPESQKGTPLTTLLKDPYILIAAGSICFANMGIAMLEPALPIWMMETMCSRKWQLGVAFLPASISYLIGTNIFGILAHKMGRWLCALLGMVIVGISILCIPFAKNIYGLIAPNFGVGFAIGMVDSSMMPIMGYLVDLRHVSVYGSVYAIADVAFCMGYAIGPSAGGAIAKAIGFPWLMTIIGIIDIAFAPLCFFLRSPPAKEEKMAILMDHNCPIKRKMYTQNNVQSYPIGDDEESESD
parameter: pKi
# reply with the number alone; pKi is -log10 of concentration in mol/L

Task: Using the record for "c1ccc2nc(CC[C@H]3CCC[C@@H](CCc4ccc5ccccc5n4)N3)ccc2c1" , report its pKi.
Result: 7.24

Task: Thanks! And "c1ccc2c(CC[C@H]3CCC[C@@H](CCc4ccnc5ccccc45)N3)ccnc2c1" ?
Result: 7.38

Task: "OC[C@H](O)CN1[C@@H](CCc2ccc3ccccc3n2)CCC[C@H]1CCc1ccc2ccccc2n1" ?
Result: 6.62

Task: Same for "c1cnc2ccc(CC[C@H]3CCC[C@@H](CCc4ccc5ncccc5c4)N3)cc2c1"
Result: 7.38
